tested on: LOX IMVI melanoma; assay: NCI tumour cell line growth inhibition, 48 h
PROPERTY_NAME: log10(TGI) (log10 of the value in µM)

COMPOUND	log10(TGI)
COC(=O)C(Cc1nc2ccccc2[nH]c1=O)C(=O)C(=O)Nc1ccc([N+](=O)[O-])cc1[N+](=O)[O-] (stereo not given)	1.65
CC1=C(C(=O)c2ccccc2)C23C(=O)N(c4ccccc4)C(=O)C2=C(O)C=CC3(O)N1 (stereo not given)	1.79
CCOC(=O)C(C)(C)Oc1ccc(/C=C/C(=O)c2ccc(Cl)cc2)cc1	1.49
COc1cc2cc(C(=O)N3CC(CCl)c4c3cc(N)c3ccccc43)[nH]c2c(OC)c1OC (stereo not given)	-1.99
CN1C(=O)C(=O)c2cc3c(c4c2c1cc1ccccc14)OCO3	1.99

Reference source for all entries: PubChem BioAssay (NCI)
